test: qHTS assay to identify small molecule agonists of the estrogen receptor beta (ER-beta) signaling pathway - cell viability counter screen (AID 1259380); conditions: ER-beta-bla HEK293T viability, CellTiter-Glo luminescence, 16 h; series mostly up to 92.4 µM; further: nearly all actives have a fitted effect of over 30% in size
Results filed as inconclusive are left out. The source made the active and inactive calls. The call rests on the fitted dose curve; in most records, active means well fitted cell-killing curve with a large enough effect in the repeat runs; inconclusive means weak or mixed curves, or effect the other way; inactive means flat fitted curve, though single readings scatter.
I would appreciate it if you answered using one of these outcomes: active, inactive

IN: How did this test come out for `Nc1cc([N+](=O)[O-])cc(Cl)c1O` ?
OUT: inactive

IN: How did this test come out for `O=c1cc[nH]cc1` ?
OUT: inactive

IN: How did this test come out for `C=CC(C)(C)O` ?
OUT: inactive

IN: How did this test come out for `C/C=C/C(=O)OCC(C)C` ?
OUT: inactive

IN: How did this test come out for `CCCCCCCCSCc1cc(C)c(O)c(CSCCCCCCCC)c1` ?
OUT: inactive

IN: How did this test come out for `C=C(C)CCO` ?
OUT: inactive

IN: How did this test come out for `CCCCC/C=C\C=C\C(=O)OCC` ?
OUT: active

---

target: Estrogen receptor (Homo sapiens); assay: qHTS assay to identify small molecule antagonists of the estrogen receptor alpha (ER-alpha) signaling pathway using the BG1 cell line in the presence of 0.1 nM 17-beta-estradiol (AID 1259244); settings: VM7Luc4E2 (BG1) ERE-luciferase, antagonist mode, 0.1 nM E2, 22 h; series mostly up to 92.4 µM; further: nearly all actives have a fitted effect of over 50% in size
Results filed as inconclusive are left out. Active and inactive are the calls of the source. Calls follow the shape of the dose curve; as a rule, active = well fitted inhibition curve with a large enough effect in the repeat runs; inconclusive = weak or mixed curves; inactive = no such curve, though single readings can be large or run the other way.
I would appreciate it if you answered using one of these outcomes: True = active, False = inactive

IN: How did this test come out for `CCCCCCCCCCCCN1CCCC1=O` ?
OUT: False

IN: How did this test come out for `C/C=C/C(=O)OCC(C)C` ?
OUT: False

IN: How did this test come out for `Cc1cc(C)c(O)c(C(C)(C)C)c1` ?
OUT: False

IN: How did this test come out for `C=C1CC[C@H]2O[C@]2(C)CC[C@@H]2[C@@H]1CC2(C)C` ?
OUT: False

IN: How did this test come out for `CN1CCN(CCCN2c3ccccc3Sc3ccc(Cl)cc32)CC1` ?
OUT: False

IN: How did this test come out for `O[Si](c1ccccc1)(c1ccccc1)c1ccccc1` ?
OUT: False

IN: How did this test come out for `CCNc1nc(NC(C)(C)C)nc(OC)n1` ?
OUT: False

IN: How did this test come out for `O=C1c2ccccc2C(=O)c2c(Cl)cccc21` ?
OUT: False

IN: How did this test come out for `Cc1ccc2n[nH]nc2c1` ?
OUT: False

IN: How did this test come out for `O=[N+]([O-])c1ccc(CO)cc1` ?
OUT: False

IN: How did this test come out for `c1ccc(C[P+](c2ccccc2)(c2ccccc2)c2ccccc2)cc1` ?
OUT: True

IN: How did this test come out for `CCN(CC)c1ccc2c(c1)Oc1cc(N(CC)CC)ccc1C21OC(=O)c2ccccc21` ?
OUT: False

IN: How did this test come out for C=CC(=O)OCC(Br)CBr (stereo unspecified) ?
OUT: False

IN: How did this test come out for `CCOc1nc(F)cc2nc(S(=O)(=O)Nc3c(Cl)cccc3C(=O)OC)nn12` ?
OUT: False

IN: How did this test come out for `Nc1ccc(Oc2cccc(Oc3ccc(N)cc3)c2)cc1` ?
OUT: True

IN: How did this test come out for `CCCCCCCCCCCCCCCCCCNC(=O)OC1CCN(C(=O)OC[C@H](COC(=O)N(Cc2cccc[n+]2CC)C(=O)c2ccccc2OC)OC)CC1` ?
OUT: True

IN: How did this test come out for `CCOC(=O)[C@H](O)[C@@H](O)C(=O)OCC` ?
OUT: False

IN: How did this test come out for `CCCCCc1ccc(O)cc1` ?
OUT: False

IN: How did this test come out for `CCN(CC)c1ccc(N=Nc2ccccc2)cc1` ?
OUT: False

IN: How did this test come out for `NC(=O)c1ccccc1Cl` ?
OUT: False

IN: How did this test come out for `[Cl][Eu]([Cl])[Cl]` ?
OUT: False

IN: How did this test come out for `Oc1ccc2c(c1)CCC2` ?
OUT: False

IN: How did this test come out for NC(=O)C1CO1 (stereo unspecified) ?
OUT: False

IN: How did this test come out for Cc1ccc(C2OC[C@@H]3OC(c4ccc(C)cc4)O[C@H]([C@H](O)CO)[C@@H]3O2)cc1 (stereo partly specified) ?
OUT: False

IN: How did this test come out for `CCCCCCCCc1ccc(Nc2ccc(CCCCCCCC)cc2)cc1` ?
OUT: False

IN: How did this test come out for `O=S(=O)(c1ccc(OCc2ccccc2)cc1)c1ccccc1O` ?
OUT: True

IN: How did this test come out for `CC/C=C\C/C=C\C/C=C\CCCCCCCC(=O)OC` ?
OUT: False

IN: How did this test come out for `Nc1ccc(F)c([N+](=O)[O-])c1` ?
OUT: False

IN: How did this test come out for `CCCOC(=O)c1ccc(O)cc1` ?
OUT: False

IN: How did this test come out for `Clc1nc(C(Cl)(Cl)Cl)c(Cl)c(Cl)c1Cl` ?
OUT: False

IN: How did this test come out for `CCOC=C(C(=O)OCC)C(=O)OCC` ?
OUT: False

IN: How did this test come out for `Clc1cccc(Cl)n1` ?
OUT: False

IN: How did this test come out for `CSc1nnc(C(C)(C)C)c(=O)[nH]1` ?
OUT: False

IN: How did this test come out for `O=C(c1ccccc1)c1ccc(Cl)cc1` ?
OUT: False

IN: How did this test come out for `Oc1ccc(C2(c3ccc(O)c(C4CCCCC4)c3)CCCCC2)cc1C1CCCCC1` ?
OUT: True

IN: How did this test come out for `Cc1ccc(N=Nc2c(O)ccc3ccccc23)c(C)c1` ?
OUT: False

IN: How did this test come out for `CN1CCN(C)CC1` ?
OUT: False

IN: How did this test come out for CCC(C)(C)c1ccc(CC(C)CN2C[C@@H](C)O[C@@H](C)C2)cc1 (stereo partly specified) ?
OUT: False

IN: How did this test come out for `C=CC(=O)O[C@H]1C[C@@H]2CC[C@@]1(C)C2(C)C` ?
OUT: False

IN: How did this test come out for `O=c1[nH]cccc1O` ?
OUT: False

IN: How did this test come out for `C=C(C)CCO` ?
OUT: False
